molecular target: T1, dimeric human LTBR-Fc biotinylated (P1AE2401) (human, UniProt P36941 31-227, biotinylated in vitro); experiment: direct ELISA
T1 construct: bought from R&D Systems (7538-LR); also called human LTBR ECD; not shown: human IgG1 Fc-Fragment
measurement_name: max. binding (OD)
One number for each entry, in OD.

Previously resolved entries follow.
>>> endpoint_result("P1AE9459 (antibody, human IgG1, kappa, L234A L235A, V domains shown, human IgG1 PG LALA; from transgenic rabbit immunization) VH: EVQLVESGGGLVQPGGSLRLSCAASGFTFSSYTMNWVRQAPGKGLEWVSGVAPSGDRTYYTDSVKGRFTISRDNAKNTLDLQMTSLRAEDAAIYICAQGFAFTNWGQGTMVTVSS VL: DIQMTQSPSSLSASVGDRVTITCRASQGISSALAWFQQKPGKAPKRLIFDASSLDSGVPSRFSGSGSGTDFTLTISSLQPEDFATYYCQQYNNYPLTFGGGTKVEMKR")
3
>>> endpoint_result("P1AF0064 (antibody, human IgG1, kappa, L234A L235A, V domains shown, human IgG1 PG LALA constant regions; V domains from rat immunization; also called LTBR (0064)) VH: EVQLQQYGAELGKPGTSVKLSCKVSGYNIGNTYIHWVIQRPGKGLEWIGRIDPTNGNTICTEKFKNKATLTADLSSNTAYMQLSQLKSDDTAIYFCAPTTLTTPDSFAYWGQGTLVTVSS VL: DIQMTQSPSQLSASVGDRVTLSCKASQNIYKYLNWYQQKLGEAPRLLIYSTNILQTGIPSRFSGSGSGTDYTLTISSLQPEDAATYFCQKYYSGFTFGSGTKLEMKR")
3.08
>>> endpoint_result("P1AE9450 (antibody, human IgG1, kappa, L234A L235A, V domains shown, human IgG1 PG LALA; from transgenic rabbit immunization; also called LTBR (9450)) VH: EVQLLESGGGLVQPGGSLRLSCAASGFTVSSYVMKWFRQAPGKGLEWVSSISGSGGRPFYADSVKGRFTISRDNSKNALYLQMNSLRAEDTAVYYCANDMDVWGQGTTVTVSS VL: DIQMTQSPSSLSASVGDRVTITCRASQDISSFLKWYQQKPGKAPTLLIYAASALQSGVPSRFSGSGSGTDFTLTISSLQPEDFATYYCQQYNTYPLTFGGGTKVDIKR")
2.77

Now for another entry.
Query :: Endpoint output: max. binding (OD) of P1AF0080 (antibody, human IgG1, kappa, L234A L235A, V domains shown, human IgG1 PG LALA; from transgenic rabbit immunization; also called LTBR (0080)) VH: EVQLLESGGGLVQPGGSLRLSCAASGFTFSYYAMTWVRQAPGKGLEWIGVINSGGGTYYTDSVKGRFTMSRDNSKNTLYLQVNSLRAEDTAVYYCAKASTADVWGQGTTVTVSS VL: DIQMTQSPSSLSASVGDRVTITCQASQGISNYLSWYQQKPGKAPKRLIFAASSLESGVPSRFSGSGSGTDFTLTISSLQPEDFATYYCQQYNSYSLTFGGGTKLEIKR . Value?
Result :: 2.88
